B1: library; a variant is named by its letters at N, in order (parent)
chain: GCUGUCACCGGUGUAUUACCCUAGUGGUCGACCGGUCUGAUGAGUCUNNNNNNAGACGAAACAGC

- Variants of: B1
- PROTOCOL SUMMARY: normalized RNA/DNA level with ligand (relative to sTRSVctl = 100) (log10 (% of sTRSVctl)); ligand: hypoxanthine (xanthine aptamer); higher = less ribozyme self-cleavage, higher mRNA level
- MEASUREMENT CONDITIONS: ligand concentration (+) RNA-Seq: 5 mM, HEK293T, reporter: mCherry (pCS4076), ligand present: yes
Please respond with reported normalized RNA/DNA level with ligand (log10) for every item in the list.
Numbers only.

CGACCA | 1.99
UCCCUG | 1.87
GGAAAC | 1.94

# batch size: 8; output normalized RNA/DNA level with ligand (log10) per entry
1. GACUAG
2. GUGUCC
3. AGAUUU
4. AGCGCA
5. CCACAG
6. GUCAGU
7. AUUUAG
8. ACCCGA

result:
[1.84, 1.97, 1.92, 1.94, 1.92, 1.94, 1.85, 1.95]

# batch size: 6; output normalized RNA/DNA level with ligand (log10) per entry
1. AUCGCA
2. GCGUAA
3. AGUCUC
4. UUCAAC
5. GCAGGC
6. AAAAAA

result:
1.93
1.83
1.94
1.94
1.86
1.9

# batch size: 4; output normalized RNA/DNA level with ligand (log10) per entry
1. GGAUAG
2. UUUGUC
3. UAAACC
4. AGUGGG

result:
1. 1.83
2. 2.01
3. 1.96
4. 1.89

# batch size: 6; output normalized RNA/DNA level with ligand (log10) per entry
1. CUGAAC
2. CGACGG
3. GGAUUU
4. CCACGU
5. CAGUGU
6. UACACC

result:
1. 1.9
2. 1.83
3. 1.99
4. 1.93
5. 1.92
6. 1.96

# batch size: 3; output normalized RNA/DNA level with ligand (log10) per entry
1. UCAUCC
2. CGAAUG
3. CCUUUA

result:
2.03
1.91
1.95

# batch size: 3; output normalized RNA/DNA level with ligand (log10) per entry
1. AAACGU
2. GACUCC
3. GCAAGG

result:
1.88
1.99
1.84

# batch size: 2; output normalized RNA/DNA level with ligand (log10) per entry
1. UCGGAG
2. CUCAAG

result:
1: 1.88; 2: 1.88

# batch size: 2; output normalized RNA/DNA level with ligand (log10) per entry
1. CCAGAA
2. AGGCAG

result:
[1.94, 1.82]
